Target: T1, human CD4 on cells (SKW3 cells; human PBMCs) (human, UniProt P01730 26-458)
T1 construct: whole, on cells; SKW3 CD4 knockout cells served as the negative cell line for the WT vs KO ratios; also called hCD4; SKW3 WT
Test: FACS confirmation, supernatant on SKW3 WT cells, anti-hu Kappa FITC (Bkrd gMFI = 2500)
recorded endpoint: gMFI (gMFI)

>  <binder>
75110_08A13A (antibody, V domains shown, Tested as non-clonal hybridoma supernatant (AlivaMab Mouse Kappa), detected with anti-mouse Fc and anti-human kappa) VH: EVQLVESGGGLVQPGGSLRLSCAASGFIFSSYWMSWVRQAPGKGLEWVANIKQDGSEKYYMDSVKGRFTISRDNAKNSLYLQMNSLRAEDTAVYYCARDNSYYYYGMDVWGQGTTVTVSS VL: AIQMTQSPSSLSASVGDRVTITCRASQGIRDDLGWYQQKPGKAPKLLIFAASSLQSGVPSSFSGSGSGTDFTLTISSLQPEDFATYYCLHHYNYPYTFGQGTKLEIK

>  <readout units>
gMFI

>  <result value>
3140

$$$$
>  <binder>
75110_05A11A (antibody, V domains shown, Tested as non-clonal hybridoma supernatant (AlivaMab Mouse Kappa), detected with anti-mouse Fc and anti-human kappa) VH: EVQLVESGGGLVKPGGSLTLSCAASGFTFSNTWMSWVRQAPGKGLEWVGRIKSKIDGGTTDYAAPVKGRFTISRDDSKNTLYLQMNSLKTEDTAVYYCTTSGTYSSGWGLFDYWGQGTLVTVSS VL: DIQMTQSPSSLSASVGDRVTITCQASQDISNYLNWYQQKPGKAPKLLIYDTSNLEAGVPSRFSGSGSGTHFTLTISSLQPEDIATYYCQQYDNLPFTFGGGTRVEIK

>  <readout units>
gMFI

>  <result value>
6620

$$$$
>  <binder>
75110_03I08A (antibody, V domains shown, Tested as non-clonal hybridoma supernatant (AlivaMab Mouse Kappa), detected with anti-mouse Fc and anti-human kappa) VH: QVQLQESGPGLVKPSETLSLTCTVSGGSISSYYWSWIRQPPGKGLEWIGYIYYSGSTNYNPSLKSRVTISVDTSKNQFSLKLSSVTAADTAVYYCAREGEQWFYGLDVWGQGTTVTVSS VL: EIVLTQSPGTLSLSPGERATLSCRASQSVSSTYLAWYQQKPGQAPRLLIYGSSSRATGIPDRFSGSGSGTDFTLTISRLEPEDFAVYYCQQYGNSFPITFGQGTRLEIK

>  <readout units>
gMFI

>  <result value>
6120

$$$$
>  <binder>
75110_02E22A (antibody, V domains shown, Tested as non-clonal hybridoma supernatant (AlivaMab Mouse Kappa), detected with anti-mouse Fc and anti-human kappa) VH: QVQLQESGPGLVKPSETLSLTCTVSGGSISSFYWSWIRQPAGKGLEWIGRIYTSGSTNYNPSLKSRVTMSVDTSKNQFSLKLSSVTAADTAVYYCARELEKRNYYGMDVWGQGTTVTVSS VL: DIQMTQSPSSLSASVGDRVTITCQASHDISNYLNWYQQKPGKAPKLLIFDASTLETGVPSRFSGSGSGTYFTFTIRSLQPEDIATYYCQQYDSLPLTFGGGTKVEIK

>  <readout units>
gMFI

>  <result value>
4280

$$$$
>  <binder>
75110_07J24A (antibody, V domains shown, Tested as non-clonal hybridoma supernatant (AlivaMab Mouse Kappa), detected with anti-mouse Fc and anti-human kappa) VH: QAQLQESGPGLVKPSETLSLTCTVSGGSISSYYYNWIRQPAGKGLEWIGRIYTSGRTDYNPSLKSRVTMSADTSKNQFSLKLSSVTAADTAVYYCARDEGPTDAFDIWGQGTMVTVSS VL: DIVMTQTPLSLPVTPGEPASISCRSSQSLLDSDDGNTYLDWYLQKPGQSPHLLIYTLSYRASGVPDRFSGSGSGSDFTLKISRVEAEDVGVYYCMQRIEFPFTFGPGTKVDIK

>  <readout units>
gMFI

>  <result value>
5830

$$$$

Reference source for all entries: patent US20220112288A1
